Target chain: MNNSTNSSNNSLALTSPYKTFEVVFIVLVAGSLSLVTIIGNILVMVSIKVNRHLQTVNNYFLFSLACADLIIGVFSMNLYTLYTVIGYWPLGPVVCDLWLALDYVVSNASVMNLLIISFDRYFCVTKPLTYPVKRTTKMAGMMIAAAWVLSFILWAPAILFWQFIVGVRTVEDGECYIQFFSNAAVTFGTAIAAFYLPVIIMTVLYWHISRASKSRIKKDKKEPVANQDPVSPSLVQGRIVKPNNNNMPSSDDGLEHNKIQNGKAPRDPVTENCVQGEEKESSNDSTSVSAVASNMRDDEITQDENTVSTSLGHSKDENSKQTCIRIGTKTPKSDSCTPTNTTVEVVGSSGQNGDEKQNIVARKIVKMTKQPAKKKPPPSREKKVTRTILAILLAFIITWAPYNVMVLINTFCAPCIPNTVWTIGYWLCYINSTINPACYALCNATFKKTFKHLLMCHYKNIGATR
pKi: −log10 of the molar value.
We use 8 as the dividing line for pKi: on or above the line is Y, below is N.

Reference set (3 entries):
Hi, just wondering whether `CC(C)NC(=O)c1ccc(C2(C3CCN(C4CCN(C(=O)c5cccc6[nH]ccc56)CC4)CC3)OCCO2)cc1` shows pKi of 8 or higher.
Y

Hi, just wondering whether `CC(C)NC(=O)c1ccc(C2(C3CCN(C4CCN(C(=O)c5ccccc5Cl)CC4)CC3)OCCO2)cc1` shows pKi of 8 or higher.
N

Hi, just wondering whether `CC(C)NC(=O)c1ccc(CC2CCN(C3CCN(C(=O)c4ccnc5ccccc45)CC3)CC2)cc1` shows pKi of 8 or higher.
N

---
Hi, just wondering whether `CC(C)NC(=O)c1ccc(CC2CCN(C3CCN(C(=O)c4ccc(F)c5ccccc45)CC3)CC2)cc1` shows pKi of 8 or higher.
Y

Hi, just wondering whether `CC(C)NC(=O)c1ccc(CC2CCN(C3CCN(C(=O)c4cccc5[nH]ccc45)CC3)CC2)cc1` shows pKi of 8 or higher.
Y

Hi, just wondering whether `Cc1ccccc1C(=O)N1CCC(N2CCC(Cc3ccc(C(=O)NC(C)(C)C)cc3)CC2)CC1` shows pKi of 8 or higher.
N

Hi, just wondering whether `Cc1c(N)cccc1C(=O)N1CCC(N2CCC(C3(c4ccc(C(=O)NC(C)C)cc4)OCCO3)CC2)CC1` shows pKi of 8 or higher.
Y

Hi, just wondering whether `O=C(NC1CCCCC1)c1ccc(CC2CCN(C3CCN(C(=O)c4ccc(F)c5ccccc45)CC3)CC2)cc1` shows pKi of 8 or higher.
N

Hi, just wondering whether `CC(C)NC(=O)c1ccc(CC2CCN(C3CCN(C(=O)c4cccc5c(F)cc(F)cc45)CC3)CC2)cc1` shows pKi of 8 or higher.
Y

Origin of the recorded values: ChEMBL document CHEMBL1147502
